# protocolSummary: reversal of MRP1-mediated doxorubicin resistance, pilot screen, H69AR cells, doxorubicin co-treatment (AID 601)
# testParameters: H69AR cells, CellTiter-Glo, 72 h; compound alone cytotoxicity; at 10 µM
Labelling: viability reported below 90% becomes label 1; at or above becomes label 0.

compound: Cc1nnc(C)c2c(C)n(Cc3ccc4c(c3)OCO4)c(C)c12
groupLabel: label 1
//
compound: CC1=C(C(=O)OC2CCCCC2)C(c2ccc(C)o2)C2=C(CC(C)(C)CC2=O)N1 (stereo unspecified)
groupLabel: label 1
//
compound: CC(C)(C)OC(=O)N1CC=C2C(C#N)=C(N)C(C#N)(C#N)C(c3cccs3)C2C1 (stereo unspecified)
groupLabel: label 1
//
compound: C=CCN1C(=O)CS/C1=C(\C#N)S(=O)(=O)c1ccc(C)cc1
groupLabel: label 1
//
compound: Cc1cc(NC(=O)CSc2nccn2-c2ccc(Cl)cc2)no1
groupLabel: label 0
//
compound: Cc1ccc(-c2cc(C(F)F)nc(NCC3CCCO3)n2)cc1 (stereo unspecified)
groupLabel: label 0
